- Test system: Penicillium chrysogenum
- test.description: Antimicrobial activity against Penicillium chrysogenum assessed as activity index
- Format: functional
// Activity lookup, one value per entry
Could you respond with only the numeric value?

In the examples that follow, each entry is paired with its recorded Activity.
- compound: "CCOP(=O)(OCC)C1=NN(CC)C2(C1=O)C(=O)c1ccccc1C2=O"
  tested.system: "Penicillium chrysogenum"
  Activity: 1.06
- compound: "CCn1nc(SC)oc2c3ccccc3c(=O)c1=2"
  tested.system: "Penicillium chrysogenum"
  Activity: 0.54
- compound: "CCOC(=O)C1=NN(CC)C2(C(=O)c3ccccc3C2=O)P1(=O)OCC (stereo not drawn)"
  tested.system: "Penicillium chrysogenum"
  Activity: 1.42
- compound: "CCOP(=O)(OCC)C1=NN(CC)C2(C1)C(=O)c1ccccc1C2=O"
  tested.system: "Penicillium chrysogenum"
  Activity: 0.71
- compound: "CCOP1(=O)C(C(=O)OC)=NN(CC)C12C(=O)c1ccccc1C2=O (stereo not drawn)"
  tested.system: "Penicillium chrysogenum"
  Activity: 1.31
- compound: "CCOP(=O)(OCC)C1=C(N)C2(N=N1)C(=O)c1ccccc1C2=O"
  tested.system: "Penicillium chrysogenum"
  Activity: 0.71

// query # lookup: Activity of CCOP1(=O)C(SC)=NN(CC)C12C(=O)c1ccccc1C2=O (stereo not drawn)
// result 1.32

// query Here is the next compound: CCOP1(=O)C(C#N)=NN(CC)C12C(=O)c1ccccc1C2=O (stereo not drawn)
// result 1

* * *

- Test system: Staphylococcus aureus
- test.description: Antimicrobial activity against Staphylococcus aureus assessed as activity index
- Type: functional
Activity vs 0.8: at or above is criterion met, below is criterion not met.

- molecule: "CCOP1(=O)C(C(=O)OC)=NN(CC)C12C(=O)c1ccccc1C2=O (stereo not drawn)"
  tested.system: "Staphylococcus aureus"
  group: "criterion met"

// query Determine whether measured Activity meets or exceeds 0.8 for CCOP1(=O)C(C#N)=NN(CC)C12C(=O)c1ccccc1C2=O (stereo not drawn)
// result criterion met

// query Proceed to CCOC(=O)C1=NN(CC)C2(C(=O)c3ccccc3C2=O)P1(=O)OCC (stereo not drawn)
// result criterion met

// query Same again, this time with CCOP1(=O)C(SC)=NN(CC)C12C(=O)c1ccccc1C2=O (stereo not drawn)
// result criterion met

// query Further, for `CCOP(=O)(OCC)C1=NN(CC)C2(C1)C(=O)c1ccccc1C2=O` ?
// result criterion not met

// query And for `CCOP(=O)(OCC)C1=NN(CC)C2(C1=O)C(=O)c1ccccc1C2=O` ?
// result criterion met

// query Same lookup for `CCn1nc(SC)oc2c3ccccc3c(=O)c1=2` , please.
// result criterion not met

// query # repeat for `CCOP(=O)(OCC)C1=C(N)C2(N=N1)C(=O)c1ccccc1C2=O`
// result criterion met

* * *

- System: Aspergillus niger
- test.description: Antimicrobial activity against Aspergillus niger assessed as activity index
- Assay type: functional
Quick rule for you: Activity at 1 or higher means T, lower means F.

- compound: "CCOP(=O)(OCC)C1=NN(CC)C2(C1=O)C(=O)c1ccccc1C2=O"
  group: "F"
- compound: "CCOP1(=O)C(C#N)=NN(CC)C12C(=O)c1ccccc1C2=O (stereo not drawn)"
  group: "T"
- compound: "CCOP(=O)(OCC)C1=NN(CC)C2(C1)C(=O)c1ccccc1C2=O"
  group: "F"
- compound: "CCOP(=O)(OCC)C1=C(N)C2(N=N1)C(=O)c1ccccc1C2=O"
  group: "F"
- compound: "CCOP1(=O)C(SC)=NN(CC)C12C(=O)c1ccccc1C2=O (stereo not drawn)"
  group: "T"

// query # check: Activity of CCOC(=O)C1=NN(CC)C2(C(=O)c3ccccc3C2=O)P1(=O)OCC (stereo not drawn) is greater than or equal to 1
// result T

// query How about `CCn1nc(SC)oc2c3ccccc3c(=O)c1=2` ?
// result T

// query Next: CCOP1(=O)C(C(=O)OC)=NN(CC)C12C(=O)c1ccccc1C2=O (stereo not drawn)
// result T

These data points were gathered from ChEMBL document CHEMBL1153858.
